// values below are reported % double-positive cells vs WT
Target: T1, mTfR-1 I279A on Expi293 cells (mouse, UniProt Q62351 1-763)
T1 construct: whole, on cells
T1 sequence (Q62351 whole entry I279A): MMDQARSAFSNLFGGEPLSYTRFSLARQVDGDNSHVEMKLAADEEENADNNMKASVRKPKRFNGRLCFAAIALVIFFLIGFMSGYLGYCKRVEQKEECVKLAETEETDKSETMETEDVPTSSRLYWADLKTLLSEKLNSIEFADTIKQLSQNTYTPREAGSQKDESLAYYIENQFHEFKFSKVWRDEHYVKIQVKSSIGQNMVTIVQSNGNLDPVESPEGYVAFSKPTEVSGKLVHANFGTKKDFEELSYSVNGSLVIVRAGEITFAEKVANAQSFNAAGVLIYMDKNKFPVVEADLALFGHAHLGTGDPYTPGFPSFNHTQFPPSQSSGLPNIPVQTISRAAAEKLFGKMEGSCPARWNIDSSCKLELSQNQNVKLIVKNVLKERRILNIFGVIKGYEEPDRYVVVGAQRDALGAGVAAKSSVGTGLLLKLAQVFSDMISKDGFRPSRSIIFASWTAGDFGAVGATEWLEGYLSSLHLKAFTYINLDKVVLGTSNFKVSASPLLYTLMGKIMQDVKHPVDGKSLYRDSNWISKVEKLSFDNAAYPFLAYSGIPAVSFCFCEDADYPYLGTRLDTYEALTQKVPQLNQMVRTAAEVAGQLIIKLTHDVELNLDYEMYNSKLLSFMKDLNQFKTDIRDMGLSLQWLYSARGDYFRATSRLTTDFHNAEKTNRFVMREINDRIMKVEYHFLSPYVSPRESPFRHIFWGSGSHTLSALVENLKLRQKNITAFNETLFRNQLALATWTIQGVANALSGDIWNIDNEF
Assay: FACS, transfected Expi293 cells
Procedure: Transfected Expi293 cells were harvested and 2×10⁵ cells were transferred into V-bottom 96-well plate for staining. […] The percentage of double-positive cells that stained with mTf and the tested antibody was determined on a CytoFlex cytometer (Beckman Coulter). […]
# output: bare number, implied unit %

# count of solved cases: 2
INSERT INTO results (binder, value) VALUES
  ('Clone C variant 13 VNAR-hFc (Fc fusion, not shown: a dimerising Fc or GST, also called Clone C v13; Clone C var; 13) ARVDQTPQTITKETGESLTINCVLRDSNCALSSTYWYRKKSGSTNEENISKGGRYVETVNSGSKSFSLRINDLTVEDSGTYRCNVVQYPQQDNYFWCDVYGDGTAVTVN', 85),
  ('8D3 antibody (anti-mouse TfR-1 control; 8D3-hFc formatted antibody) (antibody, V domains shown) VH: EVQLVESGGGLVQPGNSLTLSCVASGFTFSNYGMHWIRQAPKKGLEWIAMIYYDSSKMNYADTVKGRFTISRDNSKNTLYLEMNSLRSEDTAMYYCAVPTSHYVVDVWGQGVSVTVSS VL: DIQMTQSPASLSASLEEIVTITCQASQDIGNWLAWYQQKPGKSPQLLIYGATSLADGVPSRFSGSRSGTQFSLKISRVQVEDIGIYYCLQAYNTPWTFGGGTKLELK', 74);

Next binder, please.
**Query** Report % double-positive cells vs WT for Clone C variant 18 VNAR-hFc (Fc fusion, not shown: a dimerising Fc or GST, also called Clone C v18; Clone C var; 18) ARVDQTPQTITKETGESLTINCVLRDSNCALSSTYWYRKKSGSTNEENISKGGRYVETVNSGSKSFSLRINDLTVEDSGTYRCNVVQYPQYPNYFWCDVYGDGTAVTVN
**Result** 206
